Test: NCI Yeast Anticancer Drug Screen. Data for the bub3 strain (AID 167)
Details: S. cerevisiae bub3 mutant strain, at 50.0 µM
Procedure: Growth inhibition of yeast strains with defined genetic alterations is measured as a screen for potential anti-cancer activity. Selected strains with alterations in DNA damage repair or cell cycle control were exposed to compounds and growth inhibition was measured relative to vehicle treated controls. The strain used in this assay is bub3
The panel holds about 79,000 compounds, 15% with a hit somewhere; the sample as a whole holds those more often. Calls of active or inactive are those of the source. Rule as the data show it: active = growth inhibition above about 70%; inactive = the rest. Where a SMILES comes first, the peptide text is derived from it. Bridges are numbered along the chain shown (N, C = ends). Roman numbers before positions name the chains, in order. [ ]: non-standard residue; d: D form. The star is where a group is joined. Quinoxaline2carbonyl = O=C(c1cnc2ccccc2n1)*; NMeV = CN[CH](C(=O)O)C(C)C; NMeC = CN[CH](CS)C(=O)O
Log the outcome using a class from active, inactive

Use the examples below as a reference point.
[[record]]
molecule = "COc1ccc(CC(C)=O)cc1OC"
label_class = "inactive"

[[record]]
molecule = "N#CC1(c2ccccc2)CCN(C2(c3ccccc3)CCCCC2)CC1"
label_class = "inactive"

[[record]]
molecule = "COC(=O)C(O)(c1ccccc1)C1CCCC1 (stereo not drawn)"
label_class = "inactive"

[[record]]
molecule = "CC1NC(=O)C(NC(=O)c2cnc3ccccc3n2)COC(=O)C(C(C)C)N(C)C(=O)C2CSSCC(C(=O)N(C)C(C(C)C)C(=O)OCC(NC(=O)c3cnc4ccccc4n3)C(=O)NC(C)C(=O)N2C)N(C)C1=O (stereo not drawn) (I: Quinoxaline2carbonyl-SA[NMeC][NMeV] / II: Quinoxaline2carbonyl-SA[NMeC][NMeV]; ester I:1-II:C, I:C-II:1; disulfide I:3-II:3; configuration not given here)"
label_class = "active"


Each molecule tested received a call. Report the one for `O=C1NCN(c2ccccc2)C12CCN(Cc1ccccc1)CC2` .
inactive

Answer briefly: the call reported for COC(=O)C1(O)c2ccccc2N=C2C1CCN2C (stereo not drawn) in this assay.
inactive

// return assay outcome for C=C1C(=O)OC2CCN3CC=C(COC(=O)C(C)(O)C4(CO4)C1C)C23 (stereo not drawn)
inactive

Identify the outcome logged in this assay for the molecule shown: `O=C1NC(=S)N/C1=C/c1ccccc1O`
inactive
